# System: 616215-338-R-J1-PDC spheroids with HUVEC/MSC, viability;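 also: spheroids exposed to agents for seven days before the viability read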
# test_details: Anticancer human tumor 616215-338-R-J1-PDC patient-derived colon adenocarcinoma cell line growth inhibition [PI3K]
# assay_context: second compound 1 µM; first compound 3.16 µM; hits give low values
Labelling: viability, T/C reported below 60% becomes rule met; at or above becomes rule not met.

compound	class_name
CC1(C)CCC(Nc2ncc(C(F)(F)F)c(-c3c[nH]c4c(P(C)(C)=O)c(C#N)ccc34)n2)CN1 (stereo not given) + Cc1nc(NC(=O)N2CCCC2C(N)=O)sc1-c1ccnc(C(C)(C)C(F)(F)F)c1	rule met
CC(Cn1ccc(-c2ccc(C#N)c(Cl)c2)n1)NC(=O)c1cc(C(C)O)[nH]n1 (stereo not given) + Cc1nc(NC(=O)N2CCCC2C(N)=O)sc1-c1ccnc(C(C)(C)C(F)(F)F)c1	rule not met
CCCS(=O)(=O)Nc1ccc(F)c(C(=O)c2c[nH]c3ncc(-c4ccc(Cl)cc4)cc23)c1F + Cc1nc(NC(=O)N2CCCC2C(N)=O)sc1-c1ccnc(C(C)(C)C(F)(F)F)c1	rule not met
CC(Cn1ccc(-c2ccc(C#N)c(Cl)c2)n1)NC(=O)c1cc(C(C)O)[nH]n1 (stereo not given) + CC(Nc1ccc2c(c1)OCCn1cc(N3C(=O)OCC3C(F)F)nc1-2)C(N)=O	rule not met
